test system: cotton aphid (Aphis gossvpii); test: Insecticidal test for cotton aphid (squash cotyledon spray); assay type: in vivo; conditions: 50 ppm spray on infested squash cotyledons, 3 days, population reduction versus untreated
READOUT: CA: activity at 50 ppm against cotton aphid (% Control rating)

[[record]]
smiles_structure = "Cn1nc(-c2c(F)cccc2Cl)nc1-c1sc(C#Cc2ccc(Br)cc2OC(F)(F)F)c(Cl)c1Cl"
tested_on = "cotton aphid (Aphis gossvpii)"
result = "F (less than 50)"

[[record]]
smiles_structure = "Cn1nc(-c2c(F)cccc2Cl)nc1-c1sc(C#Cc2cc(Cl)c(OCC(F)(F)F)c(Cl)c2)c(Cl)c1Cl"
tested_on = "cotton aphid (Aphis gossvpii)"
result = "F (less than 50)"

[[record]]
smiles_structure = "Cn1nc(-c2c(F)cccc2Cl)nc1-c1sc(C#Cc2ccccn2)c(Cl)c1Cl"
tested_on = "cotton aphid (Aphis gossvpii)"
result = "F (less than 50)"

[[record]]
smiles_structure = "Cc1ccc(C#Cc2sc(-c3nc(-c4c(F)cccc4Cl)nn3C)c(Cl)c2Cl)nc1"
tested_on = "cotton aphid (Aphis gossvpii)"
result = "F (less than 50)"

[[record]]
smiles_structure = "CCCc1ccc(C#Cc2sc(-c3nc(-c4c(F)cccc4Cl)nn3CC)c(Cl)c2Cl)cc1"
tested_on = "cotton aphid (Aphis gossvpii)"
result = "F (less than 50)"


Now for a further compound.
The reported CA: activity at 50 ppm against cotton aphid (% Control rating) of the compound `CCOc1ccc(C#Cc2sc(-c3nc(-c4c(F)cccc4Cl)nn3C)c(Cl)c2Cl)cc1F` was F (less than 50)

---

tested on: cotton aphid (Aphis gossvpii); assay: Insecticidal test for cotton aphid (squash cotyledon spray); type: in vivo; conditions: 50 ppm spray on infested squash cotyledons, 3 days, population reduction versus untreated
READOUT: CA: activity at 50 ppm against cotton aphid (% Control rating)

[[record]]
compound = "Cn1nc(-c2c(F)cccc2Cl)nc1-c1ccc(C#C[Si](C)(C)C)c(Cl)c1Cl [Compound 96]"
result = "D (60-69)"

[[record]]
compound = "COc1ccc(C#Cc2sc(-c3nc(-c4c(F)cccc4Cl)nn3C)c(Cl)c2Cl)cc1Cl [Compound 48]"
result = "D (60-69)"

